Assay: Toxicity in ip dosed Kunming mouse administered as single dose
Assay type: organism-based
Details: in vivo
Measurement Type: LD50

Please look at this molecule and report its LD50: CC(C)=CCC[C@@]1(C)CC=C(CF)c2oc(C)cc2[C@@H]1/C=C/OC(=O)C=C(C)C
> 500 mg/kg

###

Measured inhibition by item
System: Reticulocyte
Test: Inhibition of HSP90 in rabbit reticulocyte lysates at 10 uM incubated for 3 hrs by denatured luciferase refolding assay
Assay type: subcellular
Settings: Oryctolagus cuniculus
# value in %; strip the unit string

Worked examples, 5 molecules total:
1. CC(C)=CCC[C@@]1(C)CC=C(COC(=O)c2ccc3cc[nH]c3c2)c2nnc(C)cc2[C@@H]1/C=C/OC(=O)C=C(C)C :: 66.6
2. CC(=O)C[C@@H]1C(=O)C(CO)=CC[C@](C)(CCC=C(C)C)[C@H]1/C=C/OC(=O)C=C(C)C :: 30
3. CC(C)=CCC[C@@]1(C)CC=C(COC(=O)c2ccc3cc[nH]c3c2)c2oc(C)cc2[C@@H]1/C=C/OC(=O)C=C(C)C :: 42.9
4. CC(C)=CCC[C@@]1(C)CC=C(COC(=O)CCC(=O)Nc2ccc(F)cc2)c2nnc(C)cc2[C@@H]1/C=C/OC(=O)C=C(C)C :: 54.1
5. CC(C)=CCC[C@@]1(C)CC=C(CNc2ccc(F)cc2)c2oc(C)cc2[C@@H]1/C=C/OC(=O)C=C(C)C :: 13.1

Please look at this molecule and report its inhibition: CC(C)=CCC[C@@]1(C)CC=C(COC(=O)CCC(=O)O)c2nnc(C)cc2[C@@H]1/C=C/OC(=O)C=C(C)C
94.6

Please look at this molecule and report its inhibition: CC(=O)C[C@@H]1C(=O)C(CF)=CC[C@](C)(CCC=C(C)C)[C@H]1/C=C/OC(=O)C=C(C)C
84.3

Please look at this molecule and report its inhibition: CC(=O)C[C@@H]1C(=O)C(COC(=O)CCC(=O)O)=CC[C@](C)(CCC=C(C)C)[C@H]1/C=C/OC(=O)C=C(C)C
66.8

Please look at this molecule and report its inhibition: CC(=O)C[C@@H]1C(=O)C(COC(=O)c2ccccc2)=CC[C@](C)(CCC=C(C)C)[C@H]1/C=C/OC(=O)C=C(C)C
36.9

Please look at this molecule and report its inhibition: CC(C)=CCC[C@@]1(C)CC=C(CO)c2nnc(C)cc2[C@@H]1/C=C/OC(=O)C=C(C)C
23.6

Please look at this molecule and report its inhibition: CC(C)=CCC[C@@]1(C)CC=C(CCl)c2nnc(C)cc2[C@@H]1/C=C/OC(=O)C=C(C)C
85.9

Please look at this molecule and report its inhibition: CC(=O)C[C@@H]1C(=O)[C@H](CO)CC[C@](C)(CCCC(C)C)[C@H]1/C=C/OC(=O)C=C(C)C
22.8

Please look at this molecule and report its inhibition: CC(C)=CCC[C@@]1(C)CC=C(CO)c2oc(C)cc2[C@@H]1/C=C/OC(=O)C=C(C)C
82.3

Please look at this molecule and report its inhibition: CC(C)=CCC[C@@]1(C)CC=C(COC(=O)c2ccc3cc[nH]c3c2)c2[nH]c(C)cc2[C@@H]1/C=C/OC(=O)C=C(C)C
50.8

Please look at this molecule and report its inhibition: CC(=O)C[C@@H]1C(=O)C(CN2CCN(C(C)C)CC2)=CC[C@](C)(CCC=C(C)C)[C@H]1/C=C/OC(=O)C=C(C)C
23.8

Please look at this molecule and report its inhibition: CC(C)=CCC[C@@]1(C)CC=C(Cn2ccnc2)c2oc(C)cc2[C@@H]1/C=C/OC(=O)C=C(C)C
37.1

###

Measured inhibition by item
Test system: Reticulocyte
Assay: Inhibition of HSP90 in rabbit reticulocyte lysates at 10 uM incubated for 3 hrs by denatured luciferase refolding assay
Format: subcellular
Settings: Oryctolagus cuniculus
# value in %; strip the unit string

Worked examples, 5 compounds total:
1. CC(=O)C[C@@H]1C(=O)C(COC(C)=O)=CC[C@](C)(CCC=C(C)C)[C@H]1/C=C/OC(=O)C=C(C)C :: 34.9
2. CC(C)=CCC[C@@]1(C)CC=C(CO)[C@H]2O[C@](C)(O)C[C@H]2[C@@H]1/C=C/OC(=O)C=C(C)C :: 14.2
3. CC(C)=CCC[C@@]1(C)CC=C(CO)C(=O)[C@H]2C[C@@](C)(O)[C@@H](C=O)[C@@H]21 :: 13.3
4. CC(C)=CCC[C@@]1(C)CC=C(CO)c2[nH]c(C)cc2[C@@H]1/C=C/OC(=O)C=C(C)C :: 10.6
5. CC(C)=CCC[C@@]1(C)CC=C(CN2CCN(C(C)C)CC2)c2nnc(C)cc2[C@@H]1/C=C/OC(=O)C=C(C)C :: 20.1

// next entry
Please look at this compound and report its inhibition: CC(C)=CCC[C@@]1(C)CC=C(COC(=O)CCC(=O)Nc2ccc(F)cc2)c2oc(C)cc2[C@@H]1/C=C/OC(=O)C=C(C)C
57

###

Measured pIC50 by item
Test system: A549
Experiment: Antiproliferative activity against human A549 cells assessed as reduction in cell viability incubated for 48 hrs by MTT assay
Assay type: functional, cell-based
Conditions: A549, 48 h
pIC50: −log10 of the molar value.

1) CC(C)=CCC[C@@]1(C)CC=C(COC(=O)CCC(=O)O)c2nnc(C)cc2[C@@H]1/C=C/OC(=O)C=C(C)C :: < 4.40
2) CC(C)=CCC[C@@]1(C)CC=C(CF)c2oc(C)cc2[C@@H]1/C=C/OC(=O)C=C(C)C :: < 4.40
3) CC(=O)O[C@H]1C(=O)[C@@]2(C)[C@H]([C@H](OC(=O)c3ccccc3)[C@]3(O)C[C@H](OC(=O)[C@H](O)[C@@H](NC(=O)c4ccccc4)c4ccccc4)C(C)=C1C3(C)C)[C@]1(OC(C)=O)CO[C@@H]1C[C@@H]2O :: > 8.10

Please look at this compound and report its pIC50: CC(C)=CCC[C@@]1(C)CC=C(COC(=O)CCC(=O)O)c2oc(C)cc2[C@@H]1/C=C/OC(=O)C=C(C)C
< 4.40

Please look at this compound and report its pIC50: CC(C)=CCC[C@@]1(C)CC=C(CF)c2nnc(C)cc2[C@@H]1/C=C/OC(=O)C=C(C)C
4.69

###

Test system: Reticulocyte
Experiment: Inhibition of HSP90 in rabbit reticulocyte lysates at 10 uM incubated for 3 hrs by denatured luciferase refolding assay
Type: subcellular
Settings: Oryctolagus cuniculus
Measurement Type: inhibition (%)
# value in %; strip the unit string

1. CC(C)=CCC[C@@]1(C)CC=C(COC(=O)CCC(=O)O)c2oc(C)cc2[C@@H]1/C=C/OC(=O)C=C(C)C :: 88.2
2. CC(C)=CCC[C@@]1(C)CC=C(CF)c2oc(C)cc2[C@@H]1/C=C/OC(=O)C=C(C)C :: 72.2
3. CC(C)=CCC[C@@]1(C)CC=C(C=O)c2[nH]c(C)c(Cl)c2[C@@H]1/C=C/OC(=O)C=C(C)C :: 45
4. CC(C)=CCC[C@@]1(C)CC=C(COC(=O)CCC(=O)O)c2[nH]c(C)cc2[C@@H]1/C=C/OC(=O)C=C(C)C :: 71
5. CC(=O)C[C@@H]1C(=O)C(CO)=CC[C@](C)(CCC(=O)C(C)C)[C@H]1/C=C/OC(=O)C=C(C)C :: 0.69

Please look at this compound and report its inhibition: CC(=O)C[C@@H]1C(=O)C(CO)=CC[C@](C)(CCC2OC2(C)C)[C@H]1/C=C/OC(=O)C=C(C)C (stereo partly drawn)
36.6

Please look at this compound and report its inhibition: CC(=O)C[C@@H]1C(=O)C(COC(=O)C2CCCCC2)=CC[C@](C)(CCC=C(C)C)[C@H]1/C=C/OC(=O)C=C(C)C
40.3

Please look at this compound and report its inhibition: CC(=O)C[C@@H]1C(=O)C(CCl)=CC[C@](C)(CCC=C(C)C)[C@H]1/C=C/OC(=O)C=C(C)C
53.1

###

Experiment: Inhibition of HSP90 in rabbit reticulocyte lysates incubated for 3 hrs by denatured luciferase refolding assay
Assay type: subcellular, Oryctolagus cuniculus
Measurement Type: pIC50
Quick note: pIC50 means taking -log10 of the concentration in moles per liter.

Worked examples, 5 molecules total:
1) CC(=O)C[C@@H]1C(=O)C(CF)=CC[C@](C)(CCC=C(C)C)[C@H]1/C=C/OC(=O)C=C(C)C :: 5.39
2) CC(C)=CCC[C@@]1(C)CC=C(COC(=O)CCC(=O)O)c2nnc(C)cc2[C@@H]1/C=C/OC(=O)C=C(C)C :: 6.57
3) CC(C)=CCC[C@@]1(C)CC=C(CF)c2oc(C)cc2[C@@H]1/C=C/OC(=O)C=C(C)C :: 6.41
4) CC(C)=CCC[C@@]1(C)CC=C(COC(=O)CCC(=O)O)c2oc(C)cc2[C@@H]1/C=C/OC(=O)C=C(C)C :: 6.57
5) CC(C)=CCC[C@@]1(C)CC=C(CF)c2nnc(C)cc2[C@@H]1/C=C/OC(=O)C=C(C)C :: 6.43

Please look at this molecule and report its pIC50: CC(=O)C[C@@H]1C(=O)C(COC(=O)c2cc(Cl)ccc2N)=CC[C@](C)(CCC=C(C)C)[C@H]1/C=C/OC(=O)C=C(C)C
5.39

Please look at this molecule and report its pIC50: CO[C@@H]1[C@@H](OC(N)=O)[C@@H](O)[C@H](Oc2ccc3c(O)c(NC(=O)c4ccc(O)c(CC=C(C)C)c4)c(=O)oc3c2C)OC1(C)C
3.33

Please look at this molecule and report its pIC50: CC(C)=CCC[C@@]1(C)CC=C(CF)c2[nH]c(C)cc2[C@@H]1/C=C/OC(=O)C=C(C)C
5.44

Please look at this molecule and report its pIC50: CC(C)=CCC[C@@]1(C)CC=C(COC(=O)c2ccc3cc[nH]c3c2)c2nnc(C)cc2[C@@H]1/C=C/OC(=O)C=C(C)C
5.34
